Entries annotated with measured IC50
testTarget: PLK1 (Homo sapiens, UniProt P53350)
Construct: Full-length, active GST-PLK1 is purified from Sf9 insect cells; made in house; host or cells: Sf9 insect cells
Sequence (P53350 whole entry): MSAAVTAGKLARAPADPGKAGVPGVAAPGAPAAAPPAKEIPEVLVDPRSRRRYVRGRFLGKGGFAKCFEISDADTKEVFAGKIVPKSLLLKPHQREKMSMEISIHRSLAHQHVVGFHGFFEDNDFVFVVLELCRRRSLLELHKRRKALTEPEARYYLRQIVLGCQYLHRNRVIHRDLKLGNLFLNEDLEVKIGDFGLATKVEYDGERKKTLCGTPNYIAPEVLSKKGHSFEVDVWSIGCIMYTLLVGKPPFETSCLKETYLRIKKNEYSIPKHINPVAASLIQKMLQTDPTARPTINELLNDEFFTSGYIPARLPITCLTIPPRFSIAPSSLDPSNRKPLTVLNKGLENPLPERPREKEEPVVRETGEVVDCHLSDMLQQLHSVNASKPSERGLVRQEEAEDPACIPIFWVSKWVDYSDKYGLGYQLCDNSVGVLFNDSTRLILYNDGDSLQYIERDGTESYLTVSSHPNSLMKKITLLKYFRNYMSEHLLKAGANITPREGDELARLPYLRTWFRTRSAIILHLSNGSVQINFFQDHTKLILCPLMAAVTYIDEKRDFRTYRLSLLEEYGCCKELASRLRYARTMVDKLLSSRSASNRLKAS
testDescription: Biochemical Characterization Assay: HTRF kinase assay, GST-PLK1 phosphorylation of GST-p53
cond: GST-PLK1, GST-p53 substrate

Q: Would you mind telling me what IC50 value was observed for "CCCN1C(=O)C(F)(F)CN(C2CCCC2)c2nc(Nc3ccc(C(=O)NCCCN(C)C)cc3OC)ncc21" ?
A: 51 to 500 nM

Next up:
Q: Would you mind telling me what IC50 value was observed for "CCOc1cc(C(=O)NC2CCN(C)CC2)ccc1Nc1ncc2c(n1)N(C1CCCC1)CC(F)(F)C(=O)N2C" ?
A: 1 to 50 nM

---

testTarget: PLK1 (Homo sapiens)
Construct: Full-length, active GST-PLK1 is purified from Sf9 insect cells; made in house; host or cells: Sf9 insect cells
testDescription: Biochemical Characterization Assay: HTRF kinase assay, GST-PLK1 phosphorylation of GST-p53
cond: GST-PLK1, GST-p53 substrate
pIC50: −log10 of the molar value.
valueKind: pIC50

Sample answers from the record:
Q: Would you mind telling me what pIC50 value was observed for COc1cc(C(=O)O)ccc1Nc1ncc2c(n1)N([C@@H]1C[C@H]1c1ccccc1)CC(F)(F)C(=O)N2C (relative stereo) ?
A: < 5.30

Q: Would you mind telling me what pIC50 value was observed for "CN(C)CCCNC(=O)c1ccc(Nc2ncc3c(n2)N(C2CCCC2)CC(F)(F)C(=O)N3C)c(C(F)(F)F)c1" ?
A: 7.30 to 9.00

Q: Would you mind telling me what pIC50 value was observed for "COc1cc(C(=O)NC2CCN(C)CC2)ccc1Nc1ncc2c(n1)N(C(C)C)CC(F)(F)C(=O)N2C" ?
A: 7.30 to 9.00

Q: Would you mind telling me what pIC50 value was observed for "CN1CCC(NC(=O)c2cc(F)c(Nc3ncc4c(n3)N(C3CCCC3)CC(F)(F)C(=O)N4C)cc2F)CC1" ?
A: 7.30 to 9.00

Q: Would you mind telling me what pIC50 value was observed for "COc1cc(C(=O)NCCCN(C)C)ccc1Nc1ncc2c(n1)N(CCCc1ccccc1)CC(F)(F)C(=O)N2C" ?
A: 7.30 to 9.00

Others:
Q: Would you mind telling me what pIC50 value was observed for "COc1cc(C(=O)NC2CCOCC2)ccc1Nc1ncc2c(n1)N(C(C)C)CC(F)(F)C(=O)N2C" ?
A: 7.30 to 9.00

Q: Would you mind telling me what pIC50 value was observed for "COc1cc(C(=O)NC2CCOCC2)ccc1Nc1ncc2c(n1)N(CCCc1ccccc1)CC(F)(F)C(=O)N2C" ?
A: 6.30 to 7.29

---

testTarget: PLK1 (Homo sapiens)
Construct: Full-length, active GST-PLK1 is purified from Sf9 insect cells; made in house; host or cells: Sf9 insect cells
testDescription: Biochemical Characterization Assay: HTRF kinase assay, GST-PLK1 phosphorylation of GST-p53
cond: GST-PLK1, GST-p53 substrate
Entries annotated with measured IC50

Q: Would you mind telling me what IC50 value was observed for "CN1C(=O)C(F)(F)CN(C2CCCC2)c2nc(Nc3ccc(C(N)=O)cc3F)ncc21" ?
A: 0.001 to 0.05 µM

Q: Would you mind telling me what IC50 value was observed for "CN(C)CCNC(=O)c1ccc(Nc2ncc3c(n2)N(C2CCCC2)CC(F)(F)C(=O)N3C)c(C(F)(F)F)c1" ?
A: 0.051 to 0.5 µM

Q: Would you mind telling me what IC50 value was observed for "CCN1CCC(NC(=O)c2ccc(Nc3ncc4c(n3)N(C3CCCC3)CC(F)(F)C(=O)N4C)c(F)c2)CC1" ?
A: 0.001 to 0.05 µM

Q: Would you mind telling me what IC50 value was observed for "CNC(=O)c1ccc(Nc2ncc3c(n2)N(C2CCCCC2)CC(F)(F)C(=O)N3C)c(OC)c1" ?
A: 0.001 to 0.05 µM

Q: Would you mind telling me what IC50 value was observed for "CCN1CCC(NC(=O)c2ccc(Nc3ncc4c(n3)N(C3CCCC3)CC(F)(F)C(=O)N4C)c(C(F)(F)F)c2)CC1" ?
A: 0.001 to 0.05 µM

Q: Would you mind telling me what IC50 value was observed for "CN1C(=O)C(F)(F)CN(C2CCCCC2)c2nc(Nc3ccc(C(=O)NC4CCNCC4)cc3)ncc21" ?
A: 0.001 to 0.05 µM
